Each recorded value in this set is attributed to patent US20250382376A1.

Molecular target: T1, extracellular domain of human CD73 protein, C-terminus polyhistidine-tagged (human, UniProt P21589 27-547)
T1 construct: also the immunogen; also called CD73-ECD; human CD73-ECD
T1 sequence: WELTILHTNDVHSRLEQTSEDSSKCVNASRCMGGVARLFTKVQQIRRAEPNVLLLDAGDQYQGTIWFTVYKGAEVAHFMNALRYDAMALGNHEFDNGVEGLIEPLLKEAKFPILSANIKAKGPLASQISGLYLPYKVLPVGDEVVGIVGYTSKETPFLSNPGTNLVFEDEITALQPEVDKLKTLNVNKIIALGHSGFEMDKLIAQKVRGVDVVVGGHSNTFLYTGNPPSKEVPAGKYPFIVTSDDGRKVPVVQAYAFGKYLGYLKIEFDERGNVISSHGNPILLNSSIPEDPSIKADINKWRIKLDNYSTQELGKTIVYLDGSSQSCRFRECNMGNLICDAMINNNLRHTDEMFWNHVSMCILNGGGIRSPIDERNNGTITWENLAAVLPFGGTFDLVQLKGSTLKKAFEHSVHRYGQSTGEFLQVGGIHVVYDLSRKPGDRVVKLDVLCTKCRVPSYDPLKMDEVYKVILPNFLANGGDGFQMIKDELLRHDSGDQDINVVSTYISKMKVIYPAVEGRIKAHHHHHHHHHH
Assay: ELISA, coated CD73-ECD, protein A-HRP
READOUT_LABEL: EC50 (ng/mL)

chimeric nanobody 4-B02 (Fc fusion, Human-alpaca chimeric antibody) VHH: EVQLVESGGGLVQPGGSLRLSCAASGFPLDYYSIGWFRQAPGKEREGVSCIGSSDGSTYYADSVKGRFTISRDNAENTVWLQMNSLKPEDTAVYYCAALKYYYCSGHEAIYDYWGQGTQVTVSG ... 3.03
chimeric nanobody 3-D7 (Fc fusion, Human-alpaca chimeric antibody (VHH on hIgG1 Fc); Only the VHH is tied to the tested molecule; 37-39 exist for 3-D7-FC1/FC2/FC3; also called original antibody 3-D7) VHH: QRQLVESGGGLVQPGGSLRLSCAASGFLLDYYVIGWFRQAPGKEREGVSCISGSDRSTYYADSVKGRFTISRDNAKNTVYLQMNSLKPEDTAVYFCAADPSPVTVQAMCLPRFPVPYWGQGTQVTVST ... 13.5
chimeric nanobody 5-E11 (Fc fusion, Human-alpaca chimeric antibody (VHH on hIgG1 Fc); Only the VHH is tied to the tested molecule; also called original antibody 5-E11) VHH: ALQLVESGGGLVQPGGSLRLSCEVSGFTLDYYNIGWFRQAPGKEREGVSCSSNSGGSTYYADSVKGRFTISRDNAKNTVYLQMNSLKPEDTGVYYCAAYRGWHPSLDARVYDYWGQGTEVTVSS ... 8.72
chimeric nanobody 4-D04 (Fc fusion, Human-alpaca chimeric antibody) VHH: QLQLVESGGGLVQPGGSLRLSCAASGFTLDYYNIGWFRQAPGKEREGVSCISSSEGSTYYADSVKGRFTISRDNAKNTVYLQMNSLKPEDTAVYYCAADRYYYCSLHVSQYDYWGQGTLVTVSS ... 2.67
